Test: Permeability of the compound at pH 7.4 incubated for 4 hrs by PAMPA-GIT assay
Type: ADME
Details: pH 7.4, 4 h
Parameter: permeability

C=C(CC(=O)OC)C(=O)OCOC(=O)OC(C)C: 35.3 10^-6 cm/s
C=C(CC(=O)OCOC(=O)OC(C)C)C(=O)OCOC(=O)OC(C)C: 35.9 10^-6 cm/s
C=C(CC(=O)OC)C(=O)OCOC(=O)C(C)(C)C: 33.2 10^-6 cm/s
C=C(CC(=O)OCOC(=O)OC(C)C)C(=O)OC: 29.3 10^-6 cm/s
C=C(CC(=O)OCCCOCCCCCCCCCCCCCCCC)C(=O)O: 3.2 10^-6 cm/s

query: What value of measured permeability is listed for C=C(CC(=O)OCc1oc(=O)oc1C)C(=O)OC ?
result: 16.3 10^-6 cm/s

query: Reported permeability for C=C(CC(=O)OCOC(=O)C(C)(C)C)C(=O)OCOC(=O)C(C)(C)C : what is it?
result: 35.8 10^-6 cm/s

query: If you can, please state the reported permeability value of C=C(CC(=O)OCOC(=O)C(C)(C)C)C(=O)OC .
result: 35.2 10^-6 cm/s

query: Field request: permeability | item: C=C(CC(=O)OCc1oc(=O)oc1C)C(=O)OCc1oc(=O)oc1C
result: 17 10^-6 cm/s

query: Endpoint output: permeability of C=C(CC(=O)OC)C(=O)OCc1oc(=O)oc1C . Value?
result: 15.4 10^-6 cm/s

query: // permeability lookup, key: C=C(CC(=O)OCOC(=O)C(C)(C)C)C(=O)O
result: 0.08 10^-6 cm/s

* * *

Assay: Metabolic stability in human skin homogenate assessed as compound remaining at 10 uM measured after 1 hrs by LC-MS analysis
Format: ADME, tissue-based, Skin of body
Conditions: tissue homogenate
Note to self: Stability under 30% means true (1), ties and anything higher get false (0).

Past entries and their recorded results:
C=C(CC(=O)OCCCOCCCCCCCCCCCCCCCC)C(=O)OC: false (0)
C=C(CC(=O)OCCCOCCCCCCCCCCCCCCCC)C(=O)O: false (0)
C=C(CC(=O)OCOC(=O)OC(C)C)C(=O)O: true (1)
C=C(CC(=O)OC)C(=O)OCc1oc(=O)oc1C: false (0)
C=C(CC(=O)OCOC(=O)C(C)(C)C)C(=O)O: false (0)

query: Is the reported Stability for C=C(CC(=O)OC)C(=O)OCOC(=O)OC(C)C strictly below 30%?
result: true (1)

query: Regarding C=C(CC(=O)OCOC(=O)OC(C)C)C(=O)OC , kindly confirm whether its Stability is beneath 30%.
result: true (1)

query: Dear colleague, could you confirm whether Stability of C=C(CC(=O)OCc1oc(=O)oc1C)C(=O)O falls below 30%? Thanks.
result: false (0)

* * *

Experiment: Chemical stability in pH 1.2 assessed as compound remaining at 10 uM measured after 1 hrs by LC-MS/MS analysis
Assay type: physicochemical
Conditions: buffer, pH 1.2, 1 h
Parameter: Stability (%)
Quick reminder: number only, in %, skip the unit.

query: Quick check: Stability of C=C(CC(=O)OCc1oc(=O)oc1C)C(=O)O ?
result: 109

query: Request the reported Stability associated with C=C(CC(=O)OC)C(=O)OCOC(=O)OC(C)C
result: 108

query: Which Stability is listed for C=C(CC(=O)OCOC(=O)OC(C)C)C(=O)OC ?
result: 98

* * *

Test: Chemical stability in pH 7.4 assessed as compound remaining at 10 uM measured after 1 hrs by LC-MS/MS analysis
Format: physicochemical
Conditions: buffer, pH 7.4, 1 h
Parameter: Stability (%)
Numbers only here, please. The scale is %.

C=C(CC(=O)OCc1oc(=O)oc1C)C(=O)O: 0

query: Consider the molecule C=C(CC(=O)OCCCOCCCCCCCCCCCCCCCC)C(=O)OC and give its measured Stability.
result: 97

query: // Stability lookup, key: C=C(CC(=O)OCOC(=O)C(C)(C)C)C(=O)O
result: 22

* * *

Assay: Metabolic stability in human plasma assessed as compound remaining at 10 uM measured after 1 hrs by LC-MS analysis
Type: ADME, cell-free
Parameter: Stability (%)
I only need the number, in %, no unit after it.

Here is how some molecules turned out for Stability.
C=C(CC(=O)OCOC(=O)OC(C)C)C(=O)OCOC(=O)OC(C)C: 0
C=C(CC(=O)OC)C(=O)OCCCOCCCCCCCCCCCCCCCC: 32

As a next step, examine the molecule that follows.
query: Form field: reported Stability of C=C(CC(=O)OCOC(=O)C(C)(C)C)C(=O)O
result: 83

* * *

Assay: Chemical stability in pH 4.5 assessed as compound remaining at 10 uM measured after 1 hrs by LC-MS/MS analysis
Type: physicochemical
Details: buffer, pH 4.5, 1 h
Consider the following compounds and their measured Stability readings.
Give the number; % is assumed, so skip it.

Completed entries (count: 6):
C=C(CC(=O)OCCCOCCCCCCCCCCCCCCCC)C(=O)O: 90
C=C(CC(=O)OCOC(=O)C(C)(C)C)C(=O)OC: 104
C=C(CC(=O)OC)C(=O)OCc1oc(=O)oc1C: 87
C=C(CC(=O)OCCCOCCCCCCCCCCCCCCCC)C(=O)OC: 98
C=C(CC(=O)OCc1oc(=O)oc1C)C(=O)OC: 97
C=C(CC(=O)OCOC(=O)OC(C)C)C(=O)OC: 94

query: Please report the recorded Stability for C=C(CC(=O)OCOC(=O)OC(C)C)C(=O)O .
result: 79

query: # Stability lookup, item C=C(CC(=O)OCOC(=O)C(C)(C)C)C(=O)O
result: 74

query: I would be grateful if you could share the reported Stability for C=C(CC(=O)OCc1oc(=O)oc1C)C(=O)OCc1oc(=O)oc1C .
result: 91

query: Value lookup for Stability; key = C=C(CC(=O)OC)C(=O)OCOC(=O)OC(C)C
result: 103

query: What does the data say about its Stability? Entry: C=C(CC(=O)OCOC(=O)C(C)(C)C)C(=O)OCOC(=O)C(C)(C)C
result: 92

query: Entry C=C(CC(=O)OC)C(=O)OCCCOCCCCCCCCCCCCCCCC : reported Stability = ?
result: 108

query: Form field: reported Stability of C=C(CC(=O)OCc1oc(=O)oc1C)C(=O)O
result: 88

query: // returns reported Stability for input C=C(CC(=O)OC)C(=O)OCOC(=O)C(C)(C)C
result: 109

* * *

Assay: Metabolic stability in human plasma assessed as compound remaining at 10 uM measured after 1 hrs by LC-MS analysis
Format: ADME, cell-free
Listed below: Stability values for each entry.
Please give the number followed by its unit.

# example entries with known answers
C=C(CC(=O)OCOC(=O)C(C)(C)C)C(=O)OCOC(=O)C(C)(C)C: 0%
C=C(CC(=O)OC)C(=O)OCOC(=O)C(C)(C)C: 0%
C=C(CC(=O)OC)C(=O)OCc1oc(=O)oc1C: 0%

query: What does the record list as Stability for C=C(CC(=O)OCOC(=O)OC(C)C)C(=O)O ?
result: 53%

query: What value of Stability has been reported for the following compound? C=C(CC(=O)OCc1oc(=O)oc1C)C(=O)OC
result: 0%

query: Dear colleague, I am looking for the recorded Stability of the following compound: C=C(CC(=O)OCCCOCCCCCCCCCCCCCCCC)C(=O)OC
result: 90%

* * *

Experiment: Chemical stability in pH 1.2 assessed as compound remaining at 10 uM measured after 1 hrs by LC-MS/MS analysis
Type: physicochemical
Conditions: buffer, pH 1.2, 1 h
Parameter: Stability (%)
Express your answer in %, writing the number without its unit.

C=C(CC(=O)OC)C(=O)OCc1oc(=O)oc1C: 98

query: I have this compound here, C=C(CC(=O)OCOC(=O)C(C)(C)C)C(=O)OC , and I need its recorded Stability.
result: 101

query: Value lookup for Stability; key = C=C(CC(=O)OCCCOCCCCCCCCCCCCCCCC)C(=O)OC
result: 109

* * *

Assay: Prodrug conversion in C57BL6 mouse plasma assessed as 4-methyl itaconic half life at 100 mg/kg, po measured after 24 hrs by LC-MS/MS analysis
Format: ADME, organism-based
Conditions: in vivo
Parameter: t1/2 (min)
Numeric answer only, unit min assumed.

query: Name the reported t1/2 value associated with the compound C=C(CC(=O)OC)C(=O)OCOC(=O)OC(C)C
result: 52.2

* * *

Assay: Metabolic stability in mouse skin homogenate assessed as compound remaining at 10 uM measured after 1 hrs by LC-MS analysis
Format: ADME, tissue-based, Skin of body
Conditions: tissue homogenate
Parameter: Stability (%)
Field format: number, assumed %, no unit text.

Worked set:
C=C(CC(=O)OC)C(=O)OCc1oc(=O)oc1C: 16
C=C(CC(=O)OCc1oc(=O)oc1C)C(=O)O: 74
C=C(CC(=O)OCc1oc(=O)oc1C)C(=O)OC: 0
C=C(CC(=O)OCOC(=O)OC(C)C)C(=O)OCOC(=O)OC(C)C: 2.5
C=C(CC(=O)OC)C(=O)OCOC(=O)C(C)(C)C: 5.3
C=C(CC(=O)OCc1oc(=O)oc1C)C(=O)OCc1oc(=O)oc1C: 0
C=C(CC(=O)OCOC(=O)OC(C)C)C(=O)OC: 0
C=C(CC(=O)OCOC(=O)OC(C)C)C(=O)O: 4.9

query: Which Stability is reported for this molecule? C=C(CC(=O)OCOC(=O)C(C)(C)C)C(=O)O
result: 14

Source listed as ChEMBL document CHEMBL6121049.
